Recorded values, source paper PMC4404333.

Tested on: BJ cell line (human foreskin fibroblasts)
Test: Mammalian cell drug susceptibility assay (Cell Titer Glo, 72 h)
Format: cell-based
assay-metric: EC50

compound	result
CC1CCCCN1S(=O)(=O)c1ccc2nc(Nc3ccccc3)ccc2c1 (centres unmarked)	> 25 µM
CC1CCCCN1S(=O)(=O)c1ccc2nc(Nc3ccc(C#N)cc3)ccc2c1 (centres unmarked)	> 26 µM
CC1CCCCN1S(=O)(=O)c1ccc2nc(Nc3cccc(C#N)c3)ccc2c1 (centres unmarked)	> 25 µM
CC(C)=CCC[C@]1(C)C=Cc2c(O)c3c(c(CC=C(C)C)c2O1)O[C@]12C(=C[C@@H]4C[C@H]1C(C)(C)O[C@@]2(C/C=C(/C)C(=O)O)C4=O)C3=O [Gambogic acid, gambogic acid, reference compound]	2.5 µM
COc1cc(Nc2ccc3cc(S(=O)(=O)N4CCCCC4C)ccc3n2)cc(OC)c1OC (centres unmarked)	> 23 µM

====

Below, each entry is listed with its recorded pKi.
Biological target: PfHT (Plasmodium falciparum)
Assay: Uptake of [3H] D-glucose by L. mexicana Δlmxgt1-3 null mutants expressing PfHT
Format: cell-based
Design: expressed in transfected cells; host or cells: Leishmania mexicana promastigotes, Δlmxgt1-3 hexose transporter null mutant
Details: Kiu (Ki for binding of inhibitor to substrate-bound transporter), from plot of 1/Vmax versus [I], linear regression
pKi: −log10 of the molar value.

molecule	pKi
O=C1c2ccc3c4c(ccc(c24)C(=O)N1CCCCO)C(=O)N(CCCCO)C3=O	7.04
COc1cc(Nc2ccc3cc(S(=O)(=O)N4CCCCC4C)ccc3n2)cc(OC)c1OC (stereo not drawn)	7.64
CC1CCCCN1S(=O)(=O)c1ccc2nc(Nc3cccc(C#N)c3)ccc2c1 (stereo not drawn)	6.59

====

Recorded SIglucose GLUT1/PfHT (Specificity Index, IC50 for GLUT1/IC50 for PfHT) by entry
Target: PfHT (Plasmodium falciparum, UniProt Q7KWJ5)
Sequence (Q7KWJ5 whole entry): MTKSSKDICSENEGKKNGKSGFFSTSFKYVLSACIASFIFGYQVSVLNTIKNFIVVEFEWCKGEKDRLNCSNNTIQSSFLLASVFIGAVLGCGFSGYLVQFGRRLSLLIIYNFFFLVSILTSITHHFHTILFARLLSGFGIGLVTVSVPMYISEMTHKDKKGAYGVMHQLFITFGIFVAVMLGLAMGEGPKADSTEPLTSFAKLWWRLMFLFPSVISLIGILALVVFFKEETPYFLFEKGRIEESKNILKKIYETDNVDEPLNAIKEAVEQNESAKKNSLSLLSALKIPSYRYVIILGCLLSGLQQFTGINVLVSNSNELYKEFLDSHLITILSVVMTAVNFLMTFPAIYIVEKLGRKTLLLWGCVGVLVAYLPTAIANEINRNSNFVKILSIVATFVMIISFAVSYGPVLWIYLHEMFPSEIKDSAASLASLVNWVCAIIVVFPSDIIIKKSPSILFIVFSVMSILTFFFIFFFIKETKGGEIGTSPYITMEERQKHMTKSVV
Test: Uptake of [3H] D-glucose by L. mexicana Δlmxgt1-3 null mutants expressing PfHT
Assay type: cell-based
Set-up: expressed in transfected cells; host or cells: Leishmania mexicana promastigotes, Δlmxgt1-3 hexose transporter null mutant
Settings: uptake of 100 μM [3H] D-glucose
assay-metric: SIglucose GLUT1/PfHT (Specificity Index, IC50 for GLUT1/IC50 for PfHT)

molecule	result
CC(C)(C)C(=O)Nc1ccc(C(=O)Nc2ccc(-c3nc4ccccc4[nH]3)cc2)cc1	0.12
CCC(C)(C)C1CCc2[nH]c3ccccc3c(=O)c2C1 (centres unmarked)	0.21
COc1ccc(Nc2ccc3cc(S(=O)(=O)N4CCOCC4)ccc3n2)cc1OC	0.27
CC(C)C(C(=O)n1ncc2c3c(N)nc(N)nc3ccc21)C(C)C	7.4
O=C1c2ccc3c4c(ccc(c24)C(=O)N1CCCCO)C(=O)N(CCCCO)C3=O	71
COc1ccc(Nc2cc(C)nc(Nc3ccc(NC(C)=O)cc3)n2)cc1	0.073
Cc1cccc(C(=O)Nc2cccc(-c3nc4ccccc4[nH]3)c2)c1	0.92
COc1cc(Nc2ccc3cc(S(=O)(=O)N4CCCCC4C)ccc3n2)cc(OC)c1OC (centres unmarked)	82

====

Test: Parallel artificial membrane permeability assay (PAMPA)
Conditions: retention in artificial membrane
Protocol: A parallel artificial membrane permeability assay (PAMPA) was conducted on a Biomek FX lab automation workstation (Beckman Coulter, Inc.) with PAMPA evolution 96 command software (pION Inc.) as follows: 3 μL of 10 mM test compound stock was mixed with 600 μL of PBS (pH 7.4) to make diluted test compound. Then 150 μL of diluted test compound was transferred to a UV plate (pION Inc.), and the UV spectrum was read as the reference plate. […]
Structures can show the parent of a compound that is named as a salt.
assay-metric: Retention (%)

molecule	assay-metric	unit	result
CC1CCCCN1S(=O)(=O)c1ccc2nc(Nc3ccc(C#N)cc3)ccc2c1 (stereo not shown)	Retention	%	93
CNC(=C[N+](=O)[O-])NCCSCc1ccc(CN(C)C)o1 [Ranitidine HCl, ranitidine, reference compound]	Retention	%	1.7
NC(=O)N1c2ccccc2C=Cc2ccccc21 [Carbamazepine, carbamazepine, reference compound]	Retention	%	43
CCCSc1ccc2nc(NC(=O)OC)[nH]c2c1 [Albendazole, albendazole, reference compound]	Retention	%	59

====

Tested on: P. falciparum strain 3D7
Test: Proliferation of intraerythrocytic P. falciparum 3D7 (SYBR Green, 72 h)
Type: cell-based, Plasmodium falciparum
Details: chloroquine sensitive strain 3D7, 72 h; read-out: Pf 3D7 EC50
assay-metric: EC50 (µM)

compound	system	unit	op	result
CC1CCCCN1S(=O)(=O)c1ccc2nc(Nc3ccccc3)ccc2c1 (stereo not shown)	P. falciparum strain 3D7	µM	=	15
CC1CCCCN1S(=O)(=O)c1ccc2nc(Nc3cccc(C#N)c3)ccc2c1 (stereo not shown)	P. falciparum strain 3D7	µM	=	11
CC1CCCCN1S(=O)(=O)c1ccc2nc(Nc3ccc(C#N)cc3)ccc2c1 (stereo not shown)	P. falciparum strain 3D7	µM	>	16
COc1cc(Nc2ccc3cc(S(=O)(=O)N4CCCCC4C)ccc3n2)cc(OC)c1OC (stereo not shown)	P. falciparum strain 3D7	µM	=	1.4

====

Biological target: PfHT (Plasmodium falciparum, UniProt Q7KWJ5)
Experiment: Uptake of [3H] D-glucose by L. mexicana Δlmxgt1-3 null mutants expressing PfHT
Assay type: cell-based
Parameters: expressed in transfected cells; host or cells: Leishmania mexicana promastigotes, Δlmxgt1-3 hexose transporter null mutant
Details: uptake of 100 μM [3H] D-glucose
Think of 0.9 as a floor: if SIglucose GLUT1/PfHT (Specificity Index, IC50 for GLUT1/IC50 for PfHT) stands on it or above, it is yes; beneath it, no.

compound	system	group
CC1CCCCN1S(=O)(=O)c1ccc2nc(Nc3cccc(C#N)c3)ccc2c1 (centres unmarked) [Compound 13]	PfHT (Plasmodium falciparum, UniProt Q7KWJ5)	yes
CCC(C)(CC)C(=O)n1ncc2c3c(N)nc(N)nc3ccc21 [Compound 2]	PfHT (Plasmodium falciparum, UniProt Q7KWJ5)	yes
Cc1cc(C)cc(C(=O)Nc2cccc(-c3nc4ccccc4[nH]3)c2)c1 [Compound 18]	PfHT (Plasmodium falciparum, UniProt Q7KWJ5)	no
CCN1CCN(Cc2ccc(NC(=O)c3cc4ccc5cccnc5c4[nH]3)cc2)CC1 [Compound 9]	PfHT (Plasmodium falciparum, UniProt Q7KWJ5)	yes
Cc1cc(=O)[nH]c(-n2nc(C)cc2NC(=O)C(c2ccccc2)c2ccccc2)n1 [Compound 6]	PfHT (Plasmodium falciparum, UniProt Q7KWJ5)	no
CC(C)(C)C(=O)Nc1ccc(C(=O)Nc2cccc(-c3nc4ccccc4[nH]3)c2)cc1 [Compound 8]	PfHT (Plasmodium falciparum, UniProt Q7KWJ5)	no
COc1ccc(Nc2ccc3cc(S(=O)(=O)N4CCCCC4C)ccc3n2)cc1Cl (centres unmarked) [Compound 11]	PfHT (Plasmodium falciparum, UniProt Q7KWJ5)	yes

====

Experiment: Solubility assay
Format: physicochemical
Details: PBS buffer, aqueous buffer, kinetic from dmso stock, PBS pH 7.4, room temperature
Where a name gives a salt, the structure may show the parent alone.
The threshold is inclusive: solubility at 18 h of exactly 0.9 µM counts as t; values below receive f.

compound	group
CNC(=C[N+](=O)[O-])NCCSCc1ccc(CN(C)C)o1 [Ranitidine HCl, ranitidine, reference compound]	t
CC1CCCCN1S(=O)(=O)c1ccc2nc(Nc3ccccc3)ccc2c1 (centres unmarked) [Compound 10]	f
NC(=O)N1c2ccccc2C=Cc2ccccc21 [Carbamazepine, carbamazepine, reference compound]	t
COc1cc(Nc2ccc3cc(S(=O)(=O)N4CCCCC4C)ccc3n2)cc(OC)c1OC (centres unmarked) [Compound 1]	f

====

Target: human GLUT1 (Homo sapiens, UniProt P11166)
Sequence (P11166 1-492): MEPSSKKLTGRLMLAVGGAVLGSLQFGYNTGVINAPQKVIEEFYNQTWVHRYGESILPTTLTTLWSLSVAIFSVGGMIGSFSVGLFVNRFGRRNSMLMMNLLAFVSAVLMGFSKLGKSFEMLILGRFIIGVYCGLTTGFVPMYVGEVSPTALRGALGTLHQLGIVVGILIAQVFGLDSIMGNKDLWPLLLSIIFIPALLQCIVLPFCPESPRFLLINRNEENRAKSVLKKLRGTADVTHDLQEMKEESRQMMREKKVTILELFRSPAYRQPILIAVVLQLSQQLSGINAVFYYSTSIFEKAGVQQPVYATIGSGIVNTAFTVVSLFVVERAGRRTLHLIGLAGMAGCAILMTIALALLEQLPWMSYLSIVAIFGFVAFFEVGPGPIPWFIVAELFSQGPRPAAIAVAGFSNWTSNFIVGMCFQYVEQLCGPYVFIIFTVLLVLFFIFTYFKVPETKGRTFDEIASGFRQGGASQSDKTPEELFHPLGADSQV
Assay: Uptake of [3H] D-glucose by L. mexicana Δlmxgt1-3 null mutants expressing GLUT1
Conditions: inhibition of uptake of 100 μM [3H] D-glucose, 1 min uptake assay

molecule	op	IC50 / µM
Cc1cc(C)cc(C(=O)Nc2cccc(-c3nc4ccccc4[nH]3)c2)c1 [Compound 18]	=	12
Cc1cc(=O)[nH]c(-n2nc(C)cc2NC(=O)C(c2ccccc2)c2ccccc2)n1 [Compound 6]	=	0.66
CC(C)C(C(=O)n1ncc2c3c(N)nc(N)nc3ccc21)C(C)C [Compound 3]	=	8.1
CC1CCCCN1S(=O)(=O)c1ccc2nc(Nc3cccc(C#N)c3)ccc2c1 (stereo not shown) [Compound 13]	=	30
Cc1ccc(C(=O)Nc2cccc(-c3nc4ccccc4[nH]3)c2)cc1 [Compound 16]	=	72
CCN1CCN(Cc2ccc(NC(=O)c3cc4ccc5cccnc5c4[nH]3)cc2)CC1 [Compound 9]	=	9.5
CC1CCCCN1S(=O)(=O)c1ccc2nc(Nc3ccccc3)ccc2c1 (stereo not shown) [Compound 10]	>	10
CC(C)(C)C(=O)Nc1ccc(C(=O)Nc2cccc(-c3nc4ccccc4[nH]3)c2)cc1 [Compound 8]	=	0.37
CCC(C)(CC)C(=O)n1ncc2c3c(N)nc(N)nc3ccc21 [Compound 2]	=	44
COc1ccc(Nc2cc(C)nc(Nc3ccc(NC(C)=O)cc3)n2)cc1 [Compound 5]	=	0.25
CC1CCCCN1S(=O)(=O)c1ccc2nc(Nc3ccc(C#N)cc3)ccc2c1 (stereo not shown) [Compound 12]	=	2.5
COc1ccc(Nc2ccc3cc(S(=O)(=O)N4CCCCC4C)ccc3n2)cc1Cl (stereo not shown) [Compound 11]	=	61
Cc1cccc(C(=O)Nc2cccc(-c3nc4ccccc4[nH]3)c2)c1 [Compound 17]	=	12
O=C(Nc1cccc(-c2nc3ccccc3[nH]2)c1)c1ccccc1 [Compound 19]	=	11
CCC(C)(C)C1CCc2[nH]c3ccccc3c(=O)c2C1 (stereo not shown) [Compound 4]	=	5.7
COc1ccccc1Nc1ccc2cc(S(=O)(=O)N3CCCC3)ccc2n1 [Compound 14]	=	6.3
COc1ccc(Nc2ccc3cc(S(=O)(=O)N4CCOCC4)ccc3n2)cc1OC [Compound 15]	=	0.84
CC(C)(C)C(=O)Nc1ccc(C(=O)Nc2ccc(-c3nc4ccccc4[nH]3)cc2)cc1 [Compound 21]	=	11
CC(C)(C)c1ccc(C(=O)Nc2cccc(-c3nc4ccccc4[nH]3)c2)cc1 [Compound 20]	=	31
